B1: Azoarcus group I ribozyme (parent)
chain: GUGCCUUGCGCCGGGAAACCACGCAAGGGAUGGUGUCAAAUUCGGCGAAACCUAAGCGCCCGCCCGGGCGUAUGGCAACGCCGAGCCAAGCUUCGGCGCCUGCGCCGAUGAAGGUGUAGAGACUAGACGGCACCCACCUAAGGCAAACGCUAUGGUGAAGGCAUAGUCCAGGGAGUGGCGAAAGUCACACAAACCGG

variants of: B1; assay: reverse-splicing fitness (ratio to wild type); higher = more active; in vitro selection; Mg2+ level not given
readout_kind: reverse-splicing fitness
Give the figure by itself; no unit, no explanation.

Known results for variants:
>  <variant_string>
C82G A111U A120G A145C C150U C169G U176G

>  <measured>
0.00518

$$$$
>  <variant_string>
A120G A145C C150A U176G

>  <measured>
0.00611

$$$$
>  <variant_string>
C82G A111U U176A

>  <measured>
0.214

$$$$
>  <variant_string>
C82U A111C A120G C150A U176G

>  <measured>
0.00579

$$$$
>  <variant_string>
C82A A111C A120G A145U C150U C169G

>  <measured>
0.00909

$$$$

Entry C82A A111U A120C A145G C150U C169G U176C — recorded reverse-splicing fitness = 0.0201

Values from the RNAGym collection of RNA variant scans (doi:10.1093/molbev/msab373)
